- target or test system: Torsin-1A (Homo sapiens) (UniProt O14656)
- Sequence (O14656 whole entry, looked up): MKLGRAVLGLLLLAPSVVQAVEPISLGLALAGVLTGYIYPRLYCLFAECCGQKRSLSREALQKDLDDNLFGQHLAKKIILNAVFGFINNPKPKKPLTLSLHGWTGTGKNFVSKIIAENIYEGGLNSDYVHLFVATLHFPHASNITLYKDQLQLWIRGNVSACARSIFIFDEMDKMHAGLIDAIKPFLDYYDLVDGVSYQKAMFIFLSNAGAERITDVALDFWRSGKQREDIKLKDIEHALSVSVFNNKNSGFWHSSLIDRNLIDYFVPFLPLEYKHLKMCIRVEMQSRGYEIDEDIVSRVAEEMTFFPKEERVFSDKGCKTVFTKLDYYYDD
- protocol description: small-molecule binders of mutant TOR1A in lysate, primary screen, cell lysate, small-molecule microarray, COS7 lysate, 635/667 nm fluorescence (AID 1150);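 also: score pools 667 nm emission and signal to noise measuring lysate protein binding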
- cond: COS7 hTOR1A mutant lysate, 635 nm fluorescence, higher = more signal
experimental readout: composite z-score
Answers are plain numbers.

>>> recorded_result("CN(C)c1ccc(C(O)C2C=CC3C(=O)NC(=O)C3N2Nc2ccc(Cl)cc2Cl)cc1 (stereo unspecified)")
0.776
>>> recorded_result("O=C(NCC(O)CO)[C@]1(Cc2ccccc2)N=C(c2ccc(OCCCO)cc2)O[C@@H]1c1ccccc1 (stereo partly specified)")
1.81
>>> recorded_result("C=CC[C@]1(C(=O)O)N=C(c2ccc(OCCCO)cc2)O[C@H]1c1ccccc1")
-0.0649
>>> recorded_result("CC(c1ccccc1)C(O)C1C=CC2C(=O)N(C)C(=O)C2N1N(c1ccccc1)c1ccccc1 (stereo unspecified)")
0.426
>>> recorded_result("O=C1OCC=C[C@H]2OC34C=CCN(Cc5ccccc5)C(=O)[C@H]3N(CCO)C(=O)[C@@H]4[C@@H]12 (stereo partly specified)")
-0.768

Switching to the query record.
Lab note: "CO[C@H]1COC(=O)CC=C[C@H](C)[C@@H](OC)COC(=O)CC=C[C@@H]1C" gave composite z-score of 0.621

###

- target or test system: Dihydroorotate dehydrogenase (quinone), mitochondrial (Plasmodium falciparum (isolate 3D7))
- protocol description: PfDHODH enzyme inhibitors, primary screen, biochemical, C-terminal His tag, absorbance 600 nm (AID 1175);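 also: recombinant parasite enzyme with a five histidine tag at its C terminus; test concentration not given here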
- cond: DCIP absorbance 600 nm, higher = more signal, called active from +8 up or from −8 down
Provide the recorded composite z-score for the entries that follow.
Answers are plain numbers.

>>> recorded_result("CCN1C(C)=C(C(=O)OC)[C@@H](c2ccccc2)N2C(=O)[C@](O)(C(=O)OC)[C@@H](c3ccccc3)C(C(=O)c3ccccc3)=C12")
0.208
>>> recorded_result("CO[C@H]1COC(=O)[C@H](C)COC(=O)[C@H](Cc2ccccc2)NC(=O)CC=C[C@H]1C")
-0.393
>>> recorded_result("C=CCC(OC(C)=O)[C@@H]1[C@@H](N(Cc2ccc(-c3ccccc3)cc2)C(=O)c2ccc(-c3ccccc3)cc2)c2cc(OCCCO)ccc2N1C(=O)Cc1ccc(OC)cc1 (stereo not given in full)")
-0.979

Look at each compound and report its composite z-score.
1. C/C(=N\O)C(=O)NCCCCCNC(=O)OCc1ccccc1
2. COc1ccc([Si](C)(C)[C@@H]2[C@@H](CC(=O)N(CCO)Cc3ccccc3)O[C@]3(C(=O)N(Cc4cccc(N5CCC5=O)c4)c4ccccc43)[C@H]2C)cc1

Output:
1. -0.4
2. -0.645

###

- Tested on: Neuregulin-1 EGF-like domain
- protocol description: binders of neuregulin-1 EGF-like domain, primary screen, biochemical, small-molecule microarray, 635 nm fluorescence (AID 1081);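 also: binding of the protein to compounds printed on small-molecule microarray slides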
- cond: small-molecule microarray binding, higher = more signal
experimental readout: composite z-score
Numbers only.

Examples with answers:
>>> recorded_result("C[N+](C)(C)CCCCNC(=O)[C@@H]1C[C@@H]2C(=O)N3CCC[C@H]3C(=O)N2[C@@H]1c1cccc(OCCO)c1")
1.03
>>> recorded_result("C[C@@H]1NC(=O)CC=C[C@@H](C)[C@@H]2C=C[C@H](O)[C@@H](COC(=O)[C@H](C)NC(=O)CC=C[C@@H](C)[C@@H]3C=C[C@H](O)[C@@H](COC1=O)O3)O2")
-0.247
>>> recorded_result("C=C[C@H](OC)[C@@H](OC(=O)Nc1ccc(SC)cc1)c1ccc(OC)c(O)c1")
0.164
>>> recorded_result("CC(C)N1CC=CC23O[C@@H]4/C=C\\CCCOC(=O)C4[C@H]2C(=O)N(CCO)[C@@H]3C1=O (some centres undefined)")
1.12
>>> recorded_result("COc1cc2c(cc1OC)CN(C(=O)[C@H]1[C@@H]3C(=O)O[C@@H](c4ccccc4)[C@@H](c4ccccc4)N3[C@@H](c3ccc(O)cc3)[C@]13C(=O)Nc1ccc(C#CC4(O)CCCCCC4)cc13)CC2")
1.33

Hey, quick one: what's composite z-score for each of these?
1. COc1ccc(NN2C(C(O)c3cc(OC)c(OC)c(OC)c3)C=CC3C(=O)N(C4CCCCC4)C(=O)C32)cc1 (centres undefined)
2. CC(C)=C1C(=O)C(c2ccccc2)=C2CN3C(=O)N(CCc4ccccc4)C(=O)[C@]3(Cc3ccccc3)[C@H]21
3. CCc1cccc(NC(=O)O[C@H]2[C@H](OC(=O)Nc3ccccc3)[C@@H](OC(=O)Nc3ccccc3)[C@@H](OC)O[C@@H]2CO)c1
4. COC(=O)C(CC#Cc1ccc2c(c1)[C@]1(C(=O)N2)[C@H](C(=O)N2CCCCCCC2)[C@H]2C(=O)O[C@H](c3ccccc3)[C@H](c3ccccc3)N2[C@@H]1c1ccc(O)cc1)C(=O)OC

Output:
[1.07, -0.318, 1.39, -0.466]
